# maps each entry to its growth
Test system: LOX IMVI melanoma
test.description: NCI-60 one-dose screen, 48 h (100 = growth as untreated, 0 = no growth, -100 = all killed)
conditions: 10 µM unless noted
This is part of a sample that, as a whole, favours compounds with a hit. Of some 83,000 tested, about 20% had one in any assay.

{"compound": "OC1CC2c3ccccc3C1c1ccccc12 (stereo not drawn)", "growth [%]": 97.3}
{"compound": "COc1cc(NC(=O)c2cc3ccccc3nc2Nc2ccc(F)cc2)cc(OC)c1OC", "growth [%]": 32.6}
{"compound": "O=C1OC(c2ccccc2)=N/C1=C\\c1ccc([N+](=O)[O-])cc1", "growth [%]": 96.9}
{"compound": "CC(=O)Nc1nc(C(=O)N2N=C(C)/C(=C/c3ccccc3)C2=O)cs1", "growth [%]": 98.7}
{"compound": "CCc1cccc(C)c1NC(=O)c1sc2nc3c(cc2c1N)C(=O)CCC3", "growth [%]": 37.9}
{"compound": "O=C(Cc1c(F)cccc1Cl)Nc1ccc(S(=O)(=O)Nc2ncccn2)cc1", "growth [%]": 92.9}
{"compound": "Clc1ccc2c(c1)NC1(CCSc3ccccc31)n1nccc1-2 (stereo not drawn)", "growth [%]": 92.3}
{"compound": "COC(=O)c1cc(-c2cccs2)c(C#N)c(N)c1C#N", "growth [%]": 99}
{"compound": "CCCCCC(=O)OCc1ccccc1", "growth [%]": 96.8}
{"compound": "COc1cc2oc(-c3cccc(NC(=O)Nc4ccc5c(c4)OCO5)c3)cc(=O)c2c(OC)c1OC", "growth [%]": 38.9}
{"compound": "CCCCn1c(=O)c(C2CNC(=O)c3ccccc3N2)cc2ccccc21 (stereo not drawn)", "growth [%]": 97.3}
{"compound": "Cc1ccc(-c2csc3nc(C)c(CCCl)c(=O)n23)cc1", "growth [%]": 89.1}
{"compound": "CCOC(=O)[C@H](CSSc1ncnc2cc[nH]c12)NC(=O)[C@@H](C)c1ccc2cc(OC)ccc2c1", "growth [%]": 10.3}
{"compound": "Cc1c(C(=O)NCc2ccccc2)[n+](=O)c2cc(F)ccc2n1[O-]", "growth [%]": 97.4}
{"compound": "O=C1CCCCC=C1C[N+](=O)[O-]", "growth [%]": 81.1}
{"compound": "O=C(CC(O)c1ccncc1)c1ccccc1 (stereo not drawn)", "growth [%]": -38}
{"compound": "COc1ccc(-c2nc3sccn3c2-c2ccnc(NCCNS(=O)(=O)c3ccc(C(F)(F)F)cc3)n2)cc1", "growth [%]": 2.4}
{"compound": "COC(=O)C(CC(=O)c1ccc(-c2ccccc2)cc1)c1ccccc1 (stereo not drawn)", "growth [%]": 44.9}
{"compound": "COc1ccc(/C(=N\\O)c2cc(OC)c(OC)c(OC)c2)c(OC)c1N", "growth [%]": 42.5}
{"compound": "CC1Cc2c(N(C)C)ncnc2N(C)c2ccc(Cl)cc21 (stereo not drawn)", "growth [%]": 35.8}
{"compound": "N#CC1=C(N)n2nc(-c3ccncc3)nc2NC1c1cccc2ccccc12 (stereo not drawn)", "growth [%]": 79}
{"compound": "Clc1ccc([I+]c2ccc(Cl)cc2Cl)c(Cl)c1", "growth [%]": 10.5}
{"compound": "CC1CCN(C(=O)CSc2nc3sc4c(c3c(=O)[nH]2)CCCC4)CC1", "growth [%]": 86.4}

These entries and their values trace back to PubChem BioAssay (NCI).
